Reported MIC values follow for various compounds
Tested on: Staphylococcus haemolyticus
Assay: Antimicrobial activity against Staphylococcus haemolyticus by broth dilution technique
Assay type: functional
State just the number; it will be interpreted in µg/mL.

Use the examples below as a reference point.
compound	system	MIC, µg/mL
O=C1N/C(=N\c2nccs2)S/C1=C\c1ccccc1[N+](=O)[O-]	Staphylococcus haemolyticus	12
O=C1CS/C(=N/c2nc3ccccc3s2)N1	Staphylococcus haemolyticus	50
O=C1N/C(=N\c2nc3ccccc3s2)S/C1=C\c1ccc(Cl)cc1	Staphylococcus haemolyticus	100
COc1ccc(/C=C2\S/C(=N/c3nccs3)NC2=O)cc1	Staphylococcus haemolyticus	12
O=C1N/C(=N\c2nccs2)S/C1=C\c1ccccc1	Staphylococcus haemolyticus	6

Requested read-out: MIC. Entry: CC1(C)S[C@@H]2[C@H](NC(=O)[C@H](N)c3ccccc3)C(=O)N2[C@H]1C(=O)O [AMPICILLIN]
0.03

Requested read-out: MIC. Entry: O=C1N/C(=N\c2nccs2)S/C1=C\c1ccc([N+](=O)[O-])cc1
6

Requested read-out: MIC. Entry: O=C1N/C(=N\c2nccs2)S/C1=C\c1cccc(Cl)c1
3
